Hello, the source for this data is ChEMBL document CHEMBL1201862, in case you need it.

Give GI50 for every item shown.
# Test system: DLD-1
# assay-comment: NCI tumour cell line growth inhibition, 48 h
The source made the active and inactive calls. No stated cut-off is given here; in the data, active = GI50 up to about 1.1 µM and inactive = higher.

Check out these entries, answers already filled in.
1. Cc1ccc(S(=O)(=O)N2CCN(C=S)CC2)cc1    > 100 µM (inactive)
2. O=c1nc(-c2ccccc2)c2c3c(cccn13)CCC2    > 100 µM (inactive)
3. O=C1OC(O)c2cc3c(cc21)OCO3 (configuration not stated)    > 100 µM (inactive)
4. CCOC(=O)NC(=O)c1cn(CCOC(=O)NCCCCCCNC(=O)OCCn2cc(C(=O)NC(=O)OCC)c(=O)[nH]c2=O)c(=O)[nH]c1=O    > 100 µM (inactive)
5. CCCCCC/C=C1\CCC(CN2CCOCC2)C1=O (configuration not stated)    10.5 µM (inactive)

# batch: return GI50 for each of the 3 compounds below
1. Cc1cccc(C(C)(C)C)c1NC(=O)CC1C(=O)Nc2ccccc2[S+]1[O-] (configuration not stated)
2. [O-][S+](Cc1ccccc1)c1nc2ccccc2nc1-c1cccs1 (configuration not stated)
3. O=CN/C=C/c1ccccc1

Key:
1: 44.9 µM (inactive); 2: 11 µM (inactive); 3: > 100 µM (inactive)

# batch: return GI50 for each of the 5 compounds below
1. Cn1cnc([N+](=O)[O-])c1Sc1nc2ccccc2o1
2. COc1ccc(C(O)C(c2ccc(OCc3ccccc3)cc2)c2ccc(OCc3ccccc3)cc2)cc1 (configuration not stated)
3. CCOC(=O)C/N=c1\nc(SC)sc2c(C(=O)OCC)nc(Sc3ccccc3)n12
4. CC/C(=C(\c1ccccc1)c1ccc(OCC[N+](C)(C)C)cc1)c1ccccc1 [TAMOXIFEN METHYL IODIDE]
5. Cc1cc2c(C)nn(Cc3ccc(Cl)cc3Cl)c2c(C#N)c1C

Key:
["4.13 µM (inactive)", "> 100 µM (inactive)", "34.2 µM (inactive)", "15.6 µM (inactive)", "> 100 µM (inactive)"]

# batch: return GI50 for each of the 8 compounds below
1. O=C(COc1ccc(/C=C/C(=O)c2ccc(Cl)cc2)cc1)Nc1c(Cl)cccc1Cl
2. CN1CCc2c1nc(-c1ccc(Cl)cc1)c1c2N(C)CC1
3. Cc1ccc2c(c1)-c1c3c(nn1C)-c1ccccc1SC3O2 (configuration not stated)
4. CC(C)CC1CC2C(=O)N(c3ccccc3)C(=O)C2c2[nH]c3ccccc3c21 (configuration not stated)
5. COc1ccc2c(c1)c(Cc1c(C)n(C)c3ccc(OC)cc13)c(C)n2C
6. CCCCSC(=CC(=O)c1cccc(C(=O)C=C(SCCCC)SCCCC)n1)SCCCC
7. O=C1c2ccccc2C(=O)c2c1ccc1c3ccccc3n(-c3ccccc3)c21
8. CC1=C(O)C(=O)C2C(=O)C1C(C)C2c1ccc(Cl)cc1 (configuration not stated)

Key:
["> 100 µM (inactive)", "7.66 µM (inactive)", "> 100 µM (inactive)", "29 µM (inactive)", "> 100 µM (inactive)", "> 100 µM (inactive)", "17.1 µM (inactive)", "> 100 µM (inactive)"]

Exercise: Which GI50 is reported for this compound? `CCCSc1nc(COC(=O)NC)c(COC(=O)NC)n1C`
Key: > 100 µM (inactive)

----------
# System: ACHN
# assay-comment: NCI tumour cell line growth inhibition, 48 h
Activity calls are given as the source filed them. Rule as the data show it: active = GI50 up to about 1.1 µM and inactive = higher.
Write down the outcome that applies. Available outcomes: 1 (active), 0 (inactive)

// known answers, use as guide
1. CCCCC(=O)OC[n+]1ccc2c(C)c3[nH]c4ccccc4c3c(C)c2c1    1
2. CC(C)OC(=O)Nc1c([N+](=O)[O-])cc(C(F)(F)F)cc1[N+](=O)[O-]    0
3. FC(F)(F)c1nc2cc(SSc3cc4nc(C(F)(F)F)[nH]c4cc3Cl)c(Cl)cc2[nH]1    0
4. CC1CC(Br)C(=O)O1 (stereo unspecified)    0

Exercise: Hi team, can someone confirm the assay call for `CN(C(=O)c1ccc(Cl)cc1)C(=S)N1CCN(c2ccccc2)CC1` ?
Key: 0

Exercise: Please do the same for O=C1OC(c2ccccc2)=N/C1=C/NC(Cc1c[nH]cn1)C(=O)O (stereo unspecified) as well.
Key: 0

Exercise: Please do the same for `CC(=O)Nc1ccc(/C=C/[N+](=O)[O-])cc1` as well.
Key: 0

Exercise: Please do the same for CC1COC(c2cn[nH]c2C(N)=O)C1O (stereo unspecified) as well.
Key: 0

Exercise: Please do the same for `CC(=O)c1ccc(Nc2c3ccccc3nc3occc23)cc1` as well.
Key: 1
